- Method notes: CC50 cytotoxicity in uninfected Vero cells
- Format: cell-based
- Settings: African green monkey
Endpoint: CC50 at 6 days (µM)
I only need the number, in µM, no unit after it.

Looking up CCCCC(CC)COC(=O)CC(C(=O)OCC(CC)CCCC)S(=O)(=O)O (stereo not shown) [Docusate Sodium] , I found its CC50 at 6 days recorded as 8.19
